ASSAY_INFO: Serum esketamine levels (LC-MS/MS) after intranasal esketamine 56 mg in TRD patients
CONDITION_NOTES: human, serum, other: intranasal, 56 mg, AUC value, average of group, serum, 0-72 h, group 1 (paroxetine/fluoxetine)
READOUT: AUC (ng·h/mL)
Please give a number only; it is taken to be in ng·h/mL.

Task item: Output measured AUC for this item: CN[C@]1(c2ccccc2Cl)CCCCC1=O [esketamine, (S)-isomer of ketamine]
Reply: 868

====

ASSAY_INFO: Serum esketamine levels (LC-MS/MS) after intranasal esketamine 56 mg in TRD patients
CONDITION_NOTES: human, serum, other: intranasal, 56 mg, AUC value, average of group, serum, 0-72 h, group 2 (duloxetine)
READOUT: AUC

Task item: Please give the documented AUC of CN[C@]1(c2ccccc2Cl)CCCCC1=O [esketamine, (S)-isomer of ketamine]
Reply: 655 ng·h/mL
